Could you please report measured folding stability dG unfold for the items listed next?
# METHOD_SUMMARY: folding stability dG unfold (combined trypsin and chymotrypsin); higher = more stable
One number for each entry, in kcal/mol.

• SAGGSAMRIKVTLENGEEIEIEIEESMTEEEVKELAEELAKKLAEELGIKEVKVEVEEVELPEEEESAGGSA [r15_33_TrROS_Hall] = 2.53
• SAGGSAGGSAGTLKLTLEVTVTRLYRLPDGSGSLVAETVRVRVEVELEVDELDEDGRLLLSAGGSAGGSAGG [r11_558_TrROS_Hall] = 3.18
• SAGMDEYIRELIEKLPSENPSTSPITYRDKNIEAVTYYPSTNTTTFHFPGGEVISASPSTSIEEILKELSAG [r14_59_JUSTAS] = -0.193
• SAGGSAGGSAGPSYIAVVEFENGERPVYLFPPNTGKLEDIVEELKKKFPSLKKITIYPAPSAGGSAGGSAGG [r11_311_TrMRF] = 3.33
• MPAISIEEIIKLAKEAGKPAPPTVIVFNYKFGNTTRTLPVPLSEPVSLAEVEAAIKAADPNVTEITLTFVPS [r1_135_JUSTAS] = 1.07

Take each entry in turn and give its folding stability dG unfold.
1. SAGGSAGGSADELLDKLLNHKWLRDAMEKAPPGMEEIDIELPDGGKIRIRRTPNGGFRLEPSAGGSAGGSAG [r3_124_TrROS]
2. KRVTIMFNFPPGKPLPLSELAGFARNSGGEVKIQIYNPDDGKWQEITFPGGKIDDVEMFPDGWMVMITVKGS [r1_238_TrROS]

[1.76, 2.52]

All figures here come from the supplement of paper PMC12764529.
